subject-of-test: AChE (Homo sapiens, UniProt P22303)
Sequence (P22303 whole entry): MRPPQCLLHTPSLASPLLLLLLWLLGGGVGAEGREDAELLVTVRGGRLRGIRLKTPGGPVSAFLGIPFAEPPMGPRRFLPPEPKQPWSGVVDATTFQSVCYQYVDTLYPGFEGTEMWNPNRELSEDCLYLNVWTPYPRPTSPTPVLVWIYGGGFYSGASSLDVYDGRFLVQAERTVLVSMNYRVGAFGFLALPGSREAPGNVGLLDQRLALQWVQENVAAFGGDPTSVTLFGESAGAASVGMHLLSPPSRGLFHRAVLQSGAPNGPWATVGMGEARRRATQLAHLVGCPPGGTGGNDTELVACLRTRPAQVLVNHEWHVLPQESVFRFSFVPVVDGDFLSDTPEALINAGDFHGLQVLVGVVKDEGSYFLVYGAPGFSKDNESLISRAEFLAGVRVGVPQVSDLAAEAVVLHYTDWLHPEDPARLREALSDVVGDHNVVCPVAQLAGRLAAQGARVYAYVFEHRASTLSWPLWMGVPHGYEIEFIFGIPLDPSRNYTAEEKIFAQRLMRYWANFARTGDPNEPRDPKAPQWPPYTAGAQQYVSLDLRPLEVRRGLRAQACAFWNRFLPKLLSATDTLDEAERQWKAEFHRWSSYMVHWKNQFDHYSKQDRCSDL
assay-metric: IC50 (µM)
Write it as a number; the unit µM goes unstated.

AChE (Homo sapiens, UniProt P22303) / IC50 / CN1CC[C@@]2(C)c3cc(OC(=O)Nc4ccccc4)ccc3N(C)C12 (single isomer, unassigned; (-)) [(−)-phenserine] : value?
0.036

----------
Test system: β-APP
test-details: β-APP levels in neuroblastoma cell culture (Western blot, mAb 22C11)
Type: cell-based, human
measurement-context: intracellular β-APP levels; read-out: IC50 for intracellular β-APP
Recorded measurements of IC50, one per entry

CN1CC[C@]2(C)c3cc(OC(=O)Nc4ccccc4)ccc3N(C)C12 (single isomer, unassigned; (+)) [(+)-phenserine]	~1100 nM

Requested field: IC50. Item: CN1CC[C@@]2(C)c3cc(OC(=O)Nc4ccccc4)ccc3N(C)C12 (single isomer, unassigned; (-)) [(−)-phenserine]
~1100 nM

----------
subject-of-test: BChE (Homo sapiens, UniProt P06276)
Construct: (−)-Phenserine (RBC/plasma); from tissue; host or cells: plasma (RBC/plasma rows); brain (Brain rows)
Sequence (P06276 29-602, species assumed): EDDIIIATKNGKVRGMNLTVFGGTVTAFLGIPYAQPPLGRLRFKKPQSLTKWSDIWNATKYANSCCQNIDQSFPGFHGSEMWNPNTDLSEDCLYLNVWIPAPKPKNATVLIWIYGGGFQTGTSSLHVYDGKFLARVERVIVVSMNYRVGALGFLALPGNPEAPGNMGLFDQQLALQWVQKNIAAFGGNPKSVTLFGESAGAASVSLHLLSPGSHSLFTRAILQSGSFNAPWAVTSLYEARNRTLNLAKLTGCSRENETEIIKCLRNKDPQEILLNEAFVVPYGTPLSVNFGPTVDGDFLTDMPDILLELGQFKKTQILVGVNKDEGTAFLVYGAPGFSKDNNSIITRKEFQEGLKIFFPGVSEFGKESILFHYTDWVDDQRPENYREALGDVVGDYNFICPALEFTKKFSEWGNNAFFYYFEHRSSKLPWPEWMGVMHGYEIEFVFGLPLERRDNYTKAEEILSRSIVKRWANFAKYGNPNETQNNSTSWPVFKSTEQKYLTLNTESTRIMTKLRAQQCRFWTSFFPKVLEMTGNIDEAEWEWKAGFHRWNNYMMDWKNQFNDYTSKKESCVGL
test-details: BChE inhibition IC50 (RBC/plasma and brain)
Type: biochemical
measurement-context: RBC/plasma
assay-metric: IC50 (nM)
Report only the number, with the unit nM understood.

Could you tell me which IC50 is on file for CN1CC[C@@]2(C)c3cc(OC(=O)Nc4ccccc4)ccc3N(C)C12 (single isomer, unassigned; (-)) [(−)-phenserine] ?
1560
